Listing of entries alongside the reported pIC50.
Molecular target: T1, Clathrin N‐terminal domain (NTD) (human, UniProt Q00610 1-364)
T1 chain: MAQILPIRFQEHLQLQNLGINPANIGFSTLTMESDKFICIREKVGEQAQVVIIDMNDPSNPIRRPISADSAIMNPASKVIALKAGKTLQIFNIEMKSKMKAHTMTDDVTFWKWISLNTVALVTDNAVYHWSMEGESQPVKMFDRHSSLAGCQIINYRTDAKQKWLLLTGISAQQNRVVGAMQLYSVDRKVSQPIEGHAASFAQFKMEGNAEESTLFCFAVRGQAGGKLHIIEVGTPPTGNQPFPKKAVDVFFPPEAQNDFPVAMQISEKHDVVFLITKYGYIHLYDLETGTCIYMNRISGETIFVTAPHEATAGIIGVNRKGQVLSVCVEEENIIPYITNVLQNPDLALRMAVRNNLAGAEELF
Assay: FP
Non-standard residues stand in square brackets, D forms with d. No end group written: not given here. pS = N[C@@H](COP(=O)(O)O)C(=O)O
Please express pIC50 as -log10 of the molar concentration.

Look over these answered cases.
>>> experimental_result("GGNLITF[pS]PLQPGEF [pS839 HURP_(832–846)]")
4.96
>>> experimental_result("GGNLITFSPLQPGEF [HURP_(832–846), wild‐type]")
3.50
>>> experimental_result("GGNLITFEPLQPGEF [HURP_(832–846), phosphomimetic (E)]")
4.15

// switching to the query binder
Entry YRHISFGGNLITF[pS]PLQPGEF [pS839 HURP_(826–846) peptide] , pIC50 reported as 4.96
